Listing of recorded mean relative fluorescence intensity at 3.125 µM peptide by entry.
Molecular target: T1, HLA-A*0201 molecule on human T2 cells (human)
T1 construct: read out with anti-HLA-A2 antibody BB7.2-PE; also called HLA-A2
Assay: T2 cells expressing HLA-A*0201, anti-HLA-A2-PE, FACS

Below: 5 binders and their reported mean relative fluorescence intensity at 3.125 µM peptide.
binder: YTLGEFLYI [BIRC5-B2]
result: 6.6 % of HIV peptide

binder: FLDSLGFSL [TYMS-B2]
result: 21.5 % of HIV peptide

binder: YLLSAALTI [CHI3L1B3]
result: 14.3 % of HIV peptide

binder: LLLSAALSA (Fragment of human CHI3L1) [CHI3L1H]
result: 1 % of HIV peptide

binder: VLEELLWFI (Fragment of human TYMS) [TYMS-H]
result: 15.3 % of HIV peptide

Q: Quick one: mean relative fluorescence intensity at 3.125 µM peptide for RLSSYLVEI [FOXM1-B] ?
A: 0 % of HIV peptide

Q: What value of measured mean relative fluorescence intensity at 3.125 µM peptide is listed for RVSSYLVPI (Fragment of human FOXM1) [FOXM1-H] ?
A: 0 % of HIV peptide

Q: Quick check: mean relative fluorescence intensity at 3.125 µM peptide of AVFRVLIPV [EZH2-B2] ?
A: 0 % of HIV peptide
